B1: SETD8 (parent)
chain: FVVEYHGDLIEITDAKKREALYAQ

Variants of: B1
Assay: protein stability index of a GFP-peptide fusion (GPS, HEK-293T) (PSI 1-6); higher = more stable;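 also: lentivirally expressed fusions sorted by FACS into six bins by GFP to DsRed ratio, PSI derived from sequencing read proportions per bin multiplied by bin number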
Conditions: c terminus: a fixed tail appended
Classification field: Y = protein stability index at or over 2; N = protein stability index under 2.

Q) Confirm if protein stability index reported for the variant FVVEYHGDLIEITDCKKREALYAQ [A15C] is 2 or above.
A) N

Q) Would you kindly repeat that for FVVEYHGDLIEITCAKKREALYAQ [D14C] ?
A) N

Q) Another: FAVEYHGDLIEITDAKKREALYAQ [V2A]
A) Y

Q) Now this one: FVVEYHGDLIEITDAHKREALYAQ [K16H]
A) Y
